These measurements were taken from paper PMC1481600.

assay: in vitro; conditions: human

Molecule	Unit Symbol	CC50 at 5 days
CC(C)(C)NC(=O)[C@@H]1C[C@@H]2CCCC[C@@H]2CN1C[C@@H](O)[C@H](Cc1ccccc1)NC(=O)[C@H](CC(N)=O)NC(=O)c1ccc2ccccc2n1 [SQV(MeSO3H) (control), saquinavir, reference compound]	µM	25

====

assay: in vitro; settings: human
Non-standard residues stand in square brackets, D forms with d. Residues, ends and D or L forms follow the SMILES beside them. Groups on a side chain read outwards from the residue. *: point of attachment. Biotin = O=C1N[C@H]2[C@H](CS[C@H]2CCCCC(=O)*)N1; Ahx = NCCCCCC(=O)O
CC50: recorded values

Molecule	CC50, µM
CC(=O)N[C@H](CS)C(=O)N[C@H](CCCCN)C(=O)N[C@H](CCCNC(=N)N)C(=O)N[C@H](CCCNC(=N)N)C(=O)N[C@H](CCCNC(=N)N)C(=O)N[C@H](CCC(N)=O)C(=O)N[C@H](CCCNC(=N)N)C(=O)N[C@H](CCCNC(=N)N)C(=O)N[C@H](CCCCN)C(=O)N[C@H](CCCCN)C(=O)N[C@H](CCCNC(=N)N)C(N)=O [R.I.CK-Tat9, N-acetyl-ckrrrqrrkkr-NH2] (Ac-[dC][dK][dR][dR][dR][dQ][dR][dR][dK][dK][dR]-NH2)	29.8
CC(=O)N[C@H](CS)C(=O)N[C@H](CCCCNC(=O)CCCCCNC(=O)CCCC[C@@H]1SC[C@@H]2NC(=O)N[C@@H]21)C(=O)N[C@H](CCCNC(=N)N)C(=O)N[C@H](CCCNC(=N)N)C(=O)N[C@H](CCCNC(=N)N)C(=O)N[C@H](CCC(N)=O)C(=O)N[C@H](CCCNC(=N)N)C(=O)N[C@H](CCCNC(=N)N)C(=O)N[C@H](CCCCN)C(=O)N[C@H](CCCCN)C(=O)N[C@H](CCCNC(=N)N)C(N)=O [R.I.CK(biotin)-Tat9] (Ac-[dC][dK]([Ahx-Biotin])[dR][dR][dR][dQ][dR][dR][dK][dK][dR]-NH2)	46.8
CC(=O)N[C@@H](CCCNC(=N)N)C(=O)N[C@@H](CCCCN)C(=O)N[C@@H](CCCCN)C(=O)N[C@@H](CCCNC(=N)N)C(=O)N[C@@H](CCCNC(=N)N)C(=O)N[C@@H](CCC(N)=O)C(=O)N[C@@H](CCCNC(=N)N)C(=O)N[C@@H](CCCNC(=N)N)C(=O)N[C@@H](CCCNC(=N)N)C(N)=O [L-Tat9, reference compound]	53.8
